- measurement-target: Gal(b1-4)GlcNAc(b1-3)[GlcNAc(b1-6)]Gal(b1-4)GlcNAc
- assay-explanation: glycan array binding signal (z-score within array); higher = stronger binding
- conditions: glycan notation: IUPAC condensed, linker removed
This is one part of a sample in which the strongest signals are shown more often than they occur.
Short version: glycan array binding signal (z-score) at least -0.3 is Satisfied, less is Not satisfied.

# binder, assigned-class
rows = [
    ("Ecp6 (Cladosporium fulvum), B3VBK9 (protein) MQSMILFAAALMGAAVNGFVLPRTDDPDCETKATDCGSTSNIKYTVVKGDTLTSIAKKFKSGICNIVSVNKLANPNLIELGATLIIPENCSNPDNKSCVSTPAEPTETCVPGLPGSYTIVSGDTLTNISQDFNITLDSLIAANTQIENPDAIDVGQIITVPVCPSSQCEAVGTYNIVAGDLFVDLAATYHTTIGQIKALNNNVNPSKLKVGQQIILPQDCKNVTTAVA", "Satisfied"),
    ("BSR4 (Toxoplasma gondii), Q95NL6 (protein) MVMMGSMQQRRGGLRSNARQLLAVCMSGVVFFSSGQAVADNLLEGLLHRTLQQQVEVTSRLTVAGSDAKCDFFTPATQDSPPVSGSLTLSKGRMTATFECSATQALSISTIPTNIEQNVCDPKKTTNGTVCQFGANGSAGTEVTLKDLLETDRIVNWKVNEQREESNKSQKWSLELHNEDLPLTDKAFVVGCQATSAARGTESGKTAACKLTVNVEARASSLAENNVVTCAYGKGSNPNPVEVEMSTEKNTLTINCGSDGSLQPTTYAEEYCVADSKDVNRCSTTRFVEIFPKFLKSWWVTETQKRTSATLTIPQTDLPEADQQFLVGCVPKKTAPEDPKKDKESGTETGAPTSCTVLVTVKAASSASHASPTVQILAAASSAAA", "Satisfied"),
    ("Epa11 (Candida glabrata) (protein) MGSSHHHHHHSSGLVPRGSHMASSNAPNYPVGCSPSVGTQLTPGLSLEVYAYPMDGNNGYCWNATYKDPEFPRSGYLKNKLLGKADGVVGPLNFLAKNKDCSPKVDTLPAGFNFPQPITVTNFTMVLFGYLAPKQSGKYTFKLLADDLLLLNLGATNAFDCCNREATKNNLGEFLAYNLWPNQDKNVTVYLEKGVYYPLRLFFNNRDGGSQLDFSYYFNDSPAPLTDFSGMFFSVPDGAECPARI", "Not satisfied"),
    ("Clone646PsrP (Streptococcus pneumoniae) (protein) MDHHHHHHHHASENLYFQGAPAINASLNIAKSETKVYTGEGVDSVYRVPIYYKLKVTNDGSKLTFTYTVTYVNPKTNDLGNISSMRPGYSIYNSGTSTQTMLTLGSDLGKPSGVKNYITDKNGRQVLSYNTSTMTTQGSGYTWGNGAQMNGFFAKKGYGLTSSWTVPITGTDTSFTFTPYAARTDRIGINYFNGGGKVVESSTTSQSLSQSKSLSVSAS", "Satisfied"),
    ("Loc1 (Escherichia coli) (protein) APCALTNVGEQRGTYILKPLSMKGNLTAEKIENTGNIIECTDLQETTNAIKVHFLTQNALKFKVGSRHYIINFPFEYDGKKIELPGKSSYNLEEMLSAINFTIPYSIASVSDSSNTADIFPGTPFPLLFEIEVSSCTGNNTNCNSVRFNYNLNTILQVNLMTHHHHHH", "Not satisfied"),
    ("PLU (Photorhabdus luminiscence) (protein) HHHHHHENLYFQSSIVFASIDPRSNPLQTSSQNYVDIPGLKLDVSKYSNSPCLTALITLNIPTPYASGNNFPGGNFAIVTDQGEQLAYGGFTYSSKIPENSGRMPFTLVARYSLASNVSTIKAQWSNIRGSTVHIDSYASISAVIQCNQLV", "Not satisfied"),
]

Every entry's value here was drawn from the supplement of paper PMC8728848.
